target.of.assay: HIV Env, isolate 89-F1_2_25 (HIV)
assay.notes: cell-based or functional assay
Measured IC80 (µg/ml) with constrains accompanies every entry in the list below.
quantity.kind: IC80 (µg/ml) with constrains (µg/mL)

INSERT INTO results (binder, number) VALUES
  ('ePGDM13 (antibody, V domains shown) VH: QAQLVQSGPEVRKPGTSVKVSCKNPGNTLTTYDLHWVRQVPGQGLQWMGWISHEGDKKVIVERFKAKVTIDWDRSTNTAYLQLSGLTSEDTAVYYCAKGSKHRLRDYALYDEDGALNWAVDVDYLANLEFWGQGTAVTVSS VL: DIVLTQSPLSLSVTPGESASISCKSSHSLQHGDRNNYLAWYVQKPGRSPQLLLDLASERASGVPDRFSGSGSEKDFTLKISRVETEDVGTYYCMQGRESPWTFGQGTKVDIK', 0.006),
  ('PGDM1400 (antibody, V domains shown) VH: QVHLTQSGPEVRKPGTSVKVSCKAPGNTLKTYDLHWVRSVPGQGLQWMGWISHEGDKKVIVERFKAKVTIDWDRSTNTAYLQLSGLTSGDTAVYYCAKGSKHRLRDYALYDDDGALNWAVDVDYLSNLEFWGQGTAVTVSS VL: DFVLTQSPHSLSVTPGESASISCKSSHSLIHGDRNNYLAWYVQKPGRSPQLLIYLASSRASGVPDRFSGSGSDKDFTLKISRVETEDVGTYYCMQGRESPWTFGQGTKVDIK', 0.013),
  ('ePGDM5 (antibody, V domains shown) VH: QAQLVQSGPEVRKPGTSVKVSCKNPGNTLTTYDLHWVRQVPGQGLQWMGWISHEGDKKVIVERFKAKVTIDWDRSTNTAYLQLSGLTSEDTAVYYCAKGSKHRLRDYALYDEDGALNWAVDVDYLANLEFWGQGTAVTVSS VL: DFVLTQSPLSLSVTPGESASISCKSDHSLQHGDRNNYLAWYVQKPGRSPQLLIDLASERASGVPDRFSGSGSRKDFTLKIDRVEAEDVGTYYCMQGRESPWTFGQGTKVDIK', 0.006),
  ('ePGDM9 (antibody, V domains shown) VH: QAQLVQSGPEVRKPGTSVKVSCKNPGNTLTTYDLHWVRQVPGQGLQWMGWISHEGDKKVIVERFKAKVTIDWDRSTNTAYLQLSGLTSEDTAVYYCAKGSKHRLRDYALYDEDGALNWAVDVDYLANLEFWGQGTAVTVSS VL: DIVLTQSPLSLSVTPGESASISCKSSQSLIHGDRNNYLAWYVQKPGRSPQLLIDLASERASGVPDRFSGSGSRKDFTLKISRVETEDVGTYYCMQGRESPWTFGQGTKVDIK', 0.004);
